- System: ZR-75-1
- test: viability inhibition at highest dose (% inhibition); higher = more growth inhibition
- test settings: 4-OH-tamoxifen in medium 0 µM; 72 h
Doc: threshold 4 (exclusive). Items with viability inhibition at highest dose beneath it return true; others return false.

Would you please look over these solved cases?
CCCCCOC(=O)Nc1nc(=O)n([C@@H]2O[C@H](C)[C@@H](O)[C@H]2O)cc1F [Capecitabine] (drug 10000 nM)
false
c1cc(CN2CCCNCCNCCCNCC2)ccc1CN1CCCNCCNCCCNCC1 [Plerixafor] (drug 2500 nM)
true

Strictly below 4: is that where viability inhibition at highest dose of O=P(O)(NCCCl)NCCCl [Ifosfamide mustard] (drug 10000 nM) sits?
true

Strictly below 4: is that where viability inhibition at highest dose of O=C(O)CC[C@H]1CC[C@@](c2cc(F)ccc2F)(S(=O)(=O)c2ccc(Cl)cc2)CC1 [MK-0752] (drug 1000 nM) sits?
true

Strictly below 4: is that where viability inhibition at highest dose of NC(=O)Nc1cc(-c2cccc(F)c2)sc1C(=O)N[C@H]1CCCNC1 [AZD7762] (drug 1000 nM) sits?
false
